SYSTEM_TESTED: D-xylose isomerase (Streptomyces pseudogriseolus)
Sequence (P24300 2-388): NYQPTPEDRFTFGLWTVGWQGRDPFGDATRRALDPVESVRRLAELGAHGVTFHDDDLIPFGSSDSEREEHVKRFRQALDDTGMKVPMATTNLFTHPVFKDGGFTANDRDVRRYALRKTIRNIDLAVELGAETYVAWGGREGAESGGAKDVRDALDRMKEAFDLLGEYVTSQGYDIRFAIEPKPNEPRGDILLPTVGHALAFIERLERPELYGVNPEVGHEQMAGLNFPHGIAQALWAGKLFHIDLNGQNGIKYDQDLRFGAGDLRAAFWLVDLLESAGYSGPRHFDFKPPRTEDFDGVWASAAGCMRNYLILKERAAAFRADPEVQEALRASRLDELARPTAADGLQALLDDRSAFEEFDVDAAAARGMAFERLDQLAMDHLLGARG
METHOD_DESCRIPTION: competitive inhibition of D-xylose isomerization
VALUE_KIND: Ki (mM)
Give the number; mM is assumed, so skip it.

Prompt line: Give the reported Ki for O=C[C@H](O)CO (system: D-xylose isomerase (Streptomyces pseudogriseolus)).
Response line: 3
